- System: RAW-Dual
- ASSAY REMARKS: NF-kB SEAP reporter activity, fold change vs agonist alone; cytotoxicity flag (confluency mask): not cytotoxic; higher = enhanced NF-kB activity
- MEASUREMENT CONTEXT: agonist: ODN 1826 (TLR9) 0.5 ug/mL
In all, about 2,900 compounds were measured (“NF-kB SEAP reporter activity, fold change vs agonist alone”: median about 0.99, highest 2% from about 2.6 on). What follows is part of a selection rich in the highest values, with near analogues and random picks from the rest.
Would you mind sorting the entries by NF-kB SEAP reporter activity according to these classes? class A = under 0.9, class B = from 0.9 up to 2, class C = 2 and over

Example entries begin here.
{"COMPOUND": "O=C1NC(=O)C(c2cnc3ccccn23)=C1c1cn2c3c(cc(F)cc13)CN(C(=O)N1CCCCC1)CC2 (library stock concentration (final ~1000-fold dilution): 10 mM)", "CLASSIFICATION": "class C"}
{"COMPOUND": "COc1ccc(-c2nc3cc(C4=NNC(=O)CC4C)ccc3[nH]2)cc1 (stereo unspecified) (library stock concentration (final ~1000-fold dilution): 10 mM)", "CLASSIFICATION": "class C"}
{"COMPOUND": "NC(=O)c1ccc(-c2nc(-c3ccc4c(c3)OCCO4)c(-c3ccccn3)[nH]2)cc1 (library stock concentration (final ~1000-fold dilution): 10 mM)", "CLASSIFICATION": "class B"}
{"COMPOUND": "CCC1OC(=O)C(C)C(OC2CC(C)(OC)C(O)C(C)O2)C(C)C(OC2OC(C)CC(N(C)C)C2O)C(C)(OC)CC(C)C(=O)C(C)C(O)C1(C)O (stereo unspecified) (library stock concentration (final ~1000-fold dilution): 10 mM)", "CLASSIFICATION": "class B"}
{"COMPOUND": "O=C(Cn1nnc(-c2ccncc2)c1-c1ccccc1)Nc1ccc(-c2ccccc2)cn1 (library stock concentration (final ~1000-fold dilution): 10 mM)", "CLASSIFICATION": "class A"}

Inquiry: Tag the class for CC(NC(=Nc1cccc2ncccc12)NC#N)c1ccccc1 (stereo unspecified) (library stock concentration (final ~1000-fold dilution): 10 mM)
Reply text: class B

Inquiry: Class (by measured NF-kB SEAP reporter activity) for CCC(C)C(=O)OC1CC(C)C=C2C=CC(C)C(CCC3CC(O)CC(=O)O3)C21 (stereo unspecified) (library stock concentration (final ~1000-fold dilution): 10 mM)
Reply text: class C

Inquiry: Classify this compound: Cl.O=C1CN2Cc3c(ccc(Cl)c3Cl)NC2=N1 (library stock concentration (final ~1000-fold dilution): 10 mM)
Reply text: class B

Inquiry: # bin label for CNC(=O)c1cc(Oc2ccc(NC(=O)Nc3ccc(Cl)c(C(F)(F)F)c3)c(F)c2)ccn1.O (library stock concentration (final ~1000-fold dilution): 10 mM)
Reply text: class A

Inquiry: Note: place this compound into its band. Item: NC(=O)c1ccc2[nH]c(-c3ccc(Oc4ccc(Cl)cc4)cc3)nc2c1 (library stock concentration (final ~1000-fold dilution): 10 mM)
Reply text: class B

Inquiry: Given C=CC(=O)Nc1cccc(Nc2nc(Nc3ccc(OCCOC)cc3)ncc2F)c1 (library stock concentration (final ~1000-fold dilution): 10 mM) , name the class its NF-kB SEAP reporter activity places it in.
Reply text: class A

###

- System: RAW-Dual
- ASSAY REMARKS: NF-kB SEAP reporter activity, fold change vs agonist alone; higher = enhanced NF-kB activity
- MEASUREMENT CONTEXT: library stock concentration (final ~1000-fold dilution): 10 mM; cytotoxicity flag (confluency mask): cytotoxic (confluency <70% of control); agonist: Imiquimod (TLR7) […]
The full ranking holds about 2,900 compounds; the median of “NF-kB SEAP reporter activity, fold change vs agonist alone” is about 0.99, and the highest 2% start at about 2.6. What follows is part of a selection rich in the highest values, with near analogues and random picks from the rest.
RECORDED METRIC: NF-kB SEAP reporter activity

Known results for compounds:
{"COMPOUND": "CC1(COc2ccc3c(c2)ncn3-c2ccc3cccc(N4CCC(N)CC4)c3n2)COC1", "NF-kB SEAP reporter activity": 2.9}
{"COMPOUND": "COc1cc(OCc2cccc(-c3ccccc3)c2C)cc(OC)c1CN1CCCCC1C(=O)O (centres undefined)", "NF-kB SEAP reporter activity": 1.22}
{"COMPOUND": "CC(=O)c1ccc2c(c1)c1cc(C(C)=O)ccc1n2CCNC(C)C.Cl", "NF-kB SEAP reporter activity": 0.156}
{"COMPOUND": "CCCCNc1ncc2c(-c3ccc(CN4CCN(C)CC4)cc3)cn(C3CCC(O)CC3)c2n1.Cl (centres undefined)", "NF-kB SEAP reporter activity": 0.547}
{"COMPOUND": "CCN(CC)CCOc1ccc(Nc2ncc3cc(-c4c(Cl)cccc4Cl)c(=O)n(C)c3n2)cc1", "NF-kB SEAP reporter activity": 0.492}
{"COMPOUND": "CCn1c2ccccc2c2cc(CNCc3ccccc3OC)ccc21.Cl", "NF-kB SEAP reporter activity": 1.22}
{"COMPOUND": "CN(C)C/C=C/C(=O)Nc1ccc(C(=O)Nc2cccc(Nc3ncc(Cl)c(-c4c[nH]c5ccccc45)n3)c2)cc1.Cl.Cl", "NF-kB SEAP reporter activity": 0.142}
{"COMPOUND": "Cl.NC(=O)c1cnc(NC2CCCCC2N)nc1Nc1cccc(-n2nccn2)c1 (centres undefined)", "NF-kB SEAP reporter activity": 0.258}

Inquiry: Give its NF-kB SEAP reporter activity value. Item: `Cc1cc(Nc2ncc3c(n2)N(C)C(=O)N(c2cc(NC(=O)c4cccc(C(F)(F)F)c4)ccc2C)C3)n(C)n1`
Reply text: 0.128

Inquiry: Quick one: NF-kB SEAP reporter activity for `Nc1ncc(-c2ccnc(Nc3ccncc3)n2)c(CC2CC2)n1` ?
Reply text: 0.641

Inquiry: Return reported NF-kB SEAP reporter activity; argument: `Cl.Cl.O=c1cc(CN2CCOCC2)occ1OCCCCCSc1ccnc2cc(C(F)(F)F)ccc12`
Reply text: 0.953

Inquiry: Given the compound `Cl.OCCNCc1ccc(OCc2ccc(F)cc2)c(OCc2ccc(F)cc2)c1` , what is its reported NF-kB SEAP reporter activity?
Reply text: 1.41

Inquiry: Item under review: `Cn1cc(-c2ccc(S(=O)(=O)n3ccc(/C=C/C(=O)Nc4ccccc4N)c3)cc2)cn1` . Reported NF-kB SEAP reporter activity?
Reply text: 1.68
